assayDetails: recombinant barcode read abundance after kanamycin selection (control-corrected) (log10(CPM+1)); higher = more efficient recombination; sequences stand for … in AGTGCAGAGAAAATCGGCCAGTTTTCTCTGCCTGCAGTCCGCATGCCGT…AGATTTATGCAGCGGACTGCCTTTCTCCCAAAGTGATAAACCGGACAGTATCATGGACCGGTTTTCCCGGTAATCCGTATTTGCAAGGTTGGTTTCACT; site = the 11-nt target;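 note: IS621 recombinase and bridge RNA in Escherichia coli cells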
Use 0.5 as the dividing line for recombinant barcode read abundance (log10), with the line itself on the Fulfilled side and lower values as Not fulfilled.

                              residuestring  qualitativelabel
0  TCGTGTTCTTGGGTTCTAACCTGTTGCTA (site TCGTGTTCTTA)     Not fulfilled
1  CTATTTGCTTGGGTTCTAACCTGTTGCAA (site CTACTTGCTTT)     Not fulfilled
2  GGGGTTCCTTGGGTTCTAACCTGTTGCCT (site GGGGTTCCTAC)         Fulfilled
3  CTACGACCTTGGGTTCTAACCTGTTGCGG (site CTACGACCTCC)         Fulfilled
4  TTGAGGACTTGGGTTCTAACCTGTTGCCT (site CTGAGGACTAG)     Not fulfilled
5  TAGGGCCCTTGGGTTCTAACCTGTTGCCT (site TAGGGCCCTAG)         Fulfilled
6  CCTCAGGCTTGGGTTCTAACCTGTTGCCT (site CCTCAGGCTAG)     Not fulfilled
7  TCTGGGCCTTGGGTTCTAACCTGTTGCTT (site TCTGGGCCTAA)     Not fulfilled
8  ACCGTACCTTGGGTTCTAACCTGTTGCCT (site ACCGTACCTAG)     Not fulfilled
